Measured AC50 (UniProt Q01959)
Sequence (Q01959 whole entry): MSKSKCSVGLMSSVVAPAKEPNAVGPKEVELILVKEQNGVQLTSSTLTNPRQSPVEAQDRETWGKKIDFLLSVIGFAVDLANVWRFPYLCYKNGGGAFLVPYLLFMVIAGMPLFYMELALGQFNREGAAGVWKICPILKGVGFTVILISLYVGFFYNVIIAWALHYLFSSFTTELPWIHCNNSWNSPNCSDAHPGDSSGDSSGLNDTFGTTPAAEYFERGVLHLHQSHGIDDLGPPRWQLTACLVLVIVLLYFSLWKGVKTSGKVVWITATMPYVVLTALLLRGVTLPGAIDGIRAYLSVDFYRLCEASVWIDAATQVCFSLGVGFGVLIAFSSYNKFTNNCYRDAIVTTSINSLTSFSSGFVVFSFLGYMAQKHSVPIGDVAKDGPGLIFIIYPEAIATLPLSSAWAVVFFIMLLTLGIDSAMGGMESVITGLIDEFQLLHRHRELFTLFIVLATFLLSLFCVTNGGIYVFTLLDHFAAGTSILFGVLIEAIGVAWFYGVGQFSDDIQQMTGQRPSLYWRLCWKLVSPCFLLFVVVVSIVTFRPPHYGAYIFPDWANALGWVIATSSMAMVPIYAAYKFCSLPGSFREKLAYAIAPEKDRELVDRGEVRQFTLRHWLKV
Give your result in µM as a bare value.

Bench note: what AC50 did C=CC(=O)Nc1cccc(Oc2nc(Nc3ccc(N4CCN(C)CC4)cc3)nc3ccsc23)c1 [OLMUTINIB] show?
0.0559

Bench note: what AC50 did CC(COc1ccccc1)NC(C)C(O)c1ccc(O)cc1 (stereo not given) [ISOXSUPRINE] show?
0.625

Bench note: what AC50 did CC[N+](C)(CC)CCOC(=O)C(O)(c1ccccc1)C1CCCCC1 (stereo not given) [OXYPHENONIUM] show?
21.9

Bench note: what AC50 did Clc1ccc(C(Cn2ccnc2)OCc2csc3c(Cl)cccc23)c(Cl)c1 (stereo not given) [SERTACONAZOLE] show?
1.88

---

target: 5-hydroxytryptamine receptor 2A (Homo sapiens, UniProt P28223); format: functional, cell-based; also: assay procedure not described here
Sequence (P28223 whole entry): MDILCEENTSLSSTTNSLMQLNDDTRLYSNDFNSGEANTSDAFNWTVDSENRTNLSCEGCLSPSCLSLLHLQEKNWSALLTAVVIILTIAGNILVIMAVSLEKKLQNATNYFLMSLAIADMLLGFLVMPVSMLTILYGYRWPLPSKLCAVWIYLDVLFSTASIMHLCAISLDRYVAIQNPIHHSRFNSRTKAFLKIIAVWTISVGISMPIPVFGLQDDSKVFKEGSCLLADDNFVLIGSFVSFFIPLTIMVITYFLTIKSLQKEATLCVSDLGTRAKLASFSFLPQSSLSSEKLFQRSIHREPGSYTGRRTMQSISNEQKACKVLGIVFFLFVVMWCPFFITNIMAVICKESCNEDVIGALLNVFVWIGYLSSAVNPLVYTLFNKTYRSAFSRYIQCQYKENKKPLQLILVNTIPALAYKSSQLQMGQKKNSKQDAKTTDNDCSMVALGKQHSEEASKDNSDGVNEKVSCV
QUANTITY_MEASURED: AC50

Bench note: what AC50 did COC(=O)C1=C(C)NC(C)=C(C(=O)OCCN2CCN(C(c3ccccc3)c3ccccc3)CC2)C1c1cccc([N+](=O)[O-])c1 (stereo unspecified) show?
> 30 µM

Bench note: what AC50 did NS(=O)(=O)c1cc2c(cc1Cl)N=C(CSCc1ccccc1)NS2(=O)=O [BENZTHIAZIDE] show?
> 10 µM

Bench note: what AC50 did Cc1onc(-c2c(F)cccc2Cl)c1C(=O)N[C@@H]1C(=O)N2[C@@H]1SC(C)(C)[C@@H]2C(=O)O show?
> 30 µM

Bench note: what AC50 did O=C(c1cc(Cc2n[nH]c(=O)c3ccccc23)ccc1F)N1CCN(C(=O)C2CC2)CC1 show?
> 10 µM

Bench note: what AC50 did CC1(C)S[C@@H]2[C@H](NC(=O)C(C(=O)O)c3ccccc3)C(=O)N2[C@H]1C(=O)O (stereo partly specified) show?
> 30 µM

Bench note: what AC50 did c1ccc(C2(N3CCCCC3)CCCCC2)cc1 show?
> 30 µM

Bench note: what AC50 did CN(C)C/C=C/C(=O)Nc1cc2c(Nc3ccc(F)c(Cl)c3)ncnc2cc1O[C@H]1CCOC1 show?
> 30 µM

Bench note: what AC50 did O=c1[nH]c2ccccc2n1CCCN1CCN(C(c2ccccc2)c2ccccc2)CC1 [OXATOMIDE] show?
> 30 µM

Bench note: what AC50 did CC(C)(O/N=C(\C(=O)N[C@@H]1C(=O)N2C(C(=O)[O-])=C(C[n+]3ccccc3)CS[C@H]12)c1csc(N)n1)C(=O)O show?
> 300 µM

Bench note: what AC50 did CCCC(C)(COC(N)=O)COC(N)=O [MEPROBAMATE] show?
> 10 µM

Bench note: what AC50 did O=C(O)c1ccc(NC(=O)[C@H](Cc2ccc(O)cc2)NC(=O)c2ccccc2)cc1 [BENTIROMIDE] show?
> 10 µM

---

biological target: Histamine H2 receptor (Homo sapiens, UniProt P25021); format: functional, cell-based; also: assay procedure not described here
Sequence (P25021 whole entry): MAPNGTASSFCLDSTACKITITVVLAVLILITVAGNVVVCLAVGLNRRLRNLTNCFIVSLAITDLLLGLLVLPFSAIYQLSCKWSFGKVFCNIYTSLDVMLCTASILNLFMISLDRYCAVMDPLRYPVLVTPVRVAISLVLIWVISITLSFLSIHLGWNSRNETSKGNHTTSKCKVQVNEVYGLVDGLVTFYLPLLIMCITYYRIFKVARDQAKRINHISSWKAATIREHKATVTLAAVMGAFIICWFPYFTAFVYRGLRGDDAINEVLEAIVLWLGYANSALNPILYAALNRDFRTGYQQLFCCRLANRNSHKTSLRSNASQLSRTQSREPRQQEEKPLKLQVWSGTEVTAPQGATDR
QUANTITY_MEASURED: AC50

Bench note: what AC50 did CC(O)(CS(=O)(=O)c1ccc(F)cc1)C(=O)Nc1ccc(C#N)c(C(F)(F)F)c1 (stereo not drawn) [BICALUTAMIDE] show?
> 10 µM

Bench note: what AC50 did CCCN(CCC)S(=O)(=O)c1ccc(C(=O)O)cc1 show?
> 10 µM

Bench note: what AC50 did CCCC(C)(COC(N)=O)COC(N)=O [MEPROBAMATE] show?
> 30 µM

Bench note: what AC50 did O=c1[nH]c2ccccc2n1CCCN1CCN(C(c2ccccc2)c2ccccc2)CC1 [OXATOMIDE] show?
> 30 µM

Bench note: what AC50 did CN[C@]1(c2ccccc2Cl)CCCCC1=O show?
> 30 µM

Bench note: what AC50 did Cc1cc(=O)n(-c2ccccc2)n1C [ANTIPYRINE] show?
> 10 µM

Bench note: what AC50 did COc1cc(N)c(Cl)cc1C(=O)NC1CCN(CCCOc2ccc(F)cc2)CC1OC (stereo not drawn) [CISAPRIDE] show?
> 10 µM

Bench note: what AC50 did CC(C)NC[C@H](O)COc1ccc(CC(N)=O)cc1 show?
> 10 µM

Bench note: what AC50 did O=C1OC(OC(=O)c2cccnc2Nc2cccc(C(F)(F)F)c2)c2ccccc21 (stereo not drawn) [TALNIFLUMATE] show?
> 30 µM

Bench note: what AC50 did CCOC(=O)c1ccc(C#Cc2ccc3c(c2)C(C)(C)CCS3)nc1 show?
> 30 µM

Bench note: what AC50 did O=C1Nc2ccc(Cl)cc2C(c2ccccc2Cl)=NC1O (stereo not drawn) show?
> 10 µM

Bench note: what AC50 did CC(C)N(CCCCOCC(=O)O)c1cnc(-c2ccccc2)c(-c2ccccc2)n1 show?
> 30 µM

Bench note: what AC50 did C[C@@H]1C[C@H]2[C@@H]3CCC4=CC(=O)C=C[C@]4(C)[C@@]3(F)[C@@H](O)C[C@]2(C)[C@@]1(O)C(=O)CO show?
> 30 µM

Bench note: what AC50 did CN(C)Cc1nnc2n1-c1ccc(Cl)cc1C(c1ccccc1)=NC2 show?
> 10 µM

Bench note: what AC50 did CCOC(=O)c1ncn2c1CN(C)C(=O)c1cc(F)ccc1-2 show?
> 30 µM

Bench note: what AC50 did CCC1(c2ccc(N)cc2)CCC(=O)NC1=O (stereo not drawn) [AMINOGLUTETHIMIDE] show?
> 30 µM

Bench note: what AC50 did CN1Cc2c(N)cccc2C(c2ccccc2)C1 (stereo not drawn) show?
> 30 µM

Bench note: what AC50 did Cc1ccccc1N1C(=O)c2cc(S(N)(=O)=O)c(Cl)cc2NC1C (stereo not drawn) show?
> 10 µM

Bench note: what AC50 did CN(Cc1cnc2nc(N)nc(N)c2n1)c1ccc(C(=O)N[C@@H](CCC(=O)O)C(=O)O)cc1 [METHOTREXATE] show?
> 10 µM

Bench note: what AC50 did O=C(c1cc(Cc2n[nH]c(=O)c3ccccc23)ccc1F)N1CCN(C(=O)C2CC2)CC1 show?
> 30 µM

Bench note: what AC50 did O=C(O)c1cccnc1Nc1cccc(C(F)(F)F)c1 show?
> 10 µM

Bench note: what AC50 did CCC[C@@H]1C[C@@H](C(=O)N[C@@H]([C@H]2O[C@H](SC)[C@H](O)[C@@H](O)[C@H]2O)[C@@H](C)O)N(C)C1 show?
> 10 µM

Bench note: what AC50 did CC(=O)c1ccc(S(=O)(=O)NC(=O)NC2CCCCC2)cc1 [ACETOHEXAMIDE] show?
> 10 µM
